FYI, the data here is from PubChem BioAssay (NCI).

# System: OVCAR-4 ovarian
# measurement description: NCI tumour cell line growth inhibition, 48 h
observation type: TGI

Worked examples follow.
{"compound": "c1ccc2[nH]c(-c3cc(-c4ccc5c(c4)OCO5)n[nH]3)nc2c1", "TGI": "12 µM"}
{"compound": "Cc1ccc(-c2csc(NC(=O)N3CCN(c4cc5c(cc4F)c(=O)c(C(=O)O)cn5C4CC4)CC3)n2)cc1", "TGI": "> 100 µM"}
{"compound": "CC1C(C#N)(C#N)C(C#N)=C(N)C1(Cl)[N+](=O)[O-] (stereo not given)", "TGI": "25.8 µM"}
{"compound": "CC[C@@]1(O)C(=O)OCc2c1cc1n(c2=O)Cc2c-1nc1ccccc1c2/C=N/NC(=O)c1ccc(N)cc1", "TGI": "> 100 µM"}
{"compound": "O=C(N/N=C(/COc1ccccc1)N=Cc1cccnc1)c1ccncc1", "TGI": "> 100 µM"}

Quick batch: TGI for everything below.
1. Nc1c(C(=O)c2cccc(C#CCO)c2)cnn1-c1ccc(F)cc1
2. COc1ccc(CC2(Cc3ccc(OC)cc3)CCOC2=O)cc1

1: > 25 µM; 2: > 100 µM

Quick batch: TGI for everything below.
1. Nc1ccccc1C#C/C=C\C#Cc1cccc(O)c1
2. Cc1nn(-c2ccc(Cl)cc2)c2nc3c(nc12)C(=O)C(=O)c1ccccc1-3
3. CN1CC2CN(Cc3ccccc3)CCN2c2cccnc21 (stereo not given)
4. O=C(CC(Cl)=C(Cl)Cl)c1ccccc1

> 84.8 µM
> 100 µM
> 100 µM
> 100 µM

Quick batch: TGI for everything below.
1. CN(C)c1ccc(C=C2C(=O)NC(=S)NC2=O)c2ccccc12
2. CCSc1nc(SCC)c2c(-c3ccc(OC)c(OC)c3)c(C#N)c(SCC)nc2n1
3. CCOC(=O)C(Cl)(NC(=O)OCc1ccccc1)C(F)(F)F (stereo not given)
4. O=S(=O)(/C=C/CS(=O)(=O)c1ccccc1)c1ccccc1

> 100 µM
> 100 µM
> 100 µM
> 100 µM

----------
Please respond with reported TGI for every item in the list.
# System: 786-0 renal
# measurement description: NCI tumour cell line growth inhibition, 48 h
Give bare numbers, in µM.

{"compound": "CCOc1ccc(NC(=O)C(=O)C(C(=O)c2ccc3ccccc3c2)C2OC(=O)c3ccccc32)cc1 (centres undefined)", "measurement target": "786-0 renal", "TGI / µM": 40.5}
{"compound": "O=C(c1cc2c(c3ccccc13)NC1(CCCCC1)N=C2C(F)(F)F)C(F)(F)F", "measurement target": "786-0 renal", "TGI / µM": 14.1}
{"compound": "Cc1nn(-c2ccc([N+](=O)[O-])cc2)c2ncnc(N/N=C/c3ccccc3O)c12", "measurement target": "786-0 renal", "TGI / µM": 3.41}

Provide TGI, tested on 786-0 renal, for "COc1ccc(C(=O)/C=C/c2cccc(Nc3ccnc4cc(Cl)ccc34)c2)cc1" .
4.27

----------
# Tested on: NCI-H522 lung
# measurement description: NCI tumour cell line growth inhibition, 48 h
Lab note: anything with TGI at or over 10 µM counts as t; the rest go in f.

// below: answered compounds
{"compound": "CN(C)c1ccc(C=C2C(=O)NC(=S)NC2=O)c2ccccc12", "label": "t"}
{"compound": "CC(=O)O[C@H]1CCC2[C@@H]3CCC4c5nonc5CC[C@]4(C)C3CC[C@@]21C (stereo partly specified)", "label": "t"}
{"compound": "C[C@]12CCC(=O)CC1CCCC2=O (stereo partly specified)", "label": "t"}

Does the compound CC(=O)OC(Cc1c(O)c2c(C)cccc2oc1=O)C(C)(C)O (stereo unspecified) have recorded TGI that is 10 µM or more?
t

----------
# System: SNB-75 CNS
# measurement description: NCI tumour cell line growth inhibition, 48 h
Recorded TGI determines the group label, using bucket A = under 20 µM, bucket B = from 20 µM up to 40 µM, bucket C = 40 µM and over

{"molecule": "COc1cc(OC)c2[nH]c3c(O)c(-c4c(C)cc5c([nH]c6c(OC)cc(OC)cc65)c4O)c(C)cc3c2c1", "label": "bucket A"}
{"molecule": "COc1cc2c(cc1OC)[C@@H](Nc1ccc(F)cc1)C1COC(=O)[C@@H]1C2c1cc(OC)c(O)c(OC)c1 (some centres undefined)", "label": "bucket C"}
{"molecule": "Nc1ccccc1C#C/C=C\\C#Cc1cccc(O)c1", "label": "bucket A"}

As a next step, examine the molecule that follows.
In plain terms, what class is CC(C)Oc1c(-c2ccc(F)cc2)c(O)c2c3c1oc(=O)n3C=CC2C (centres undefined) ?
bucket B

----------
# Tested on: SK-MEL-2 melanoma
# measurement description: NCI tumour cell line growth inhibition, 48 h
Please respond with reported GI50 for every item in the list.

{"compound": "CN(C)C(=O)c1cnc2oc3ccc(O)cc3c2c1-c1ccccc1", "GI50": "> 25 µM"}
{"compound": "O=c1c(O)c(-c2ccc(O)c(O)c2)oc2cc(O)cc(O)c12", "GI50": "15.1 µM"}
{"compound": "COc1ccc(C2=CC(c3ccc(OC)cc3Br)N3C=CSC3=N2)cc1 (stereo not drawn)", "GI50": "15.2 µM"}
{"compound": "C[CH2][Sn]([CH2]C)([O]C(=O)c1ccccc1F)[O][Sn]([CH2]C)([CH2]C)[O]C(=O)c1ccccc1F", "GI50": "19.1 µM"}
{"compound": "COc1cc(OC)c(C(=O)/C=C/c2cccc(C#N)c2)c(OC)c1", "GI50": "1.49 µM"}
{"compound": "COc1cc([N+](=O)[O-])c(OC)cc1-c1nc2sccn2c1/C=N/N=C(N)N", "GI50": "30.9 µM"}
{"compound": "C=C1c2ccoc2C[C@H]2[C@H]1CC[C@@]1(O)[C@@](C)(C(=O)OC)CCC[C@]21C", "GI50": "19 µM"}
{"compound": "COC(=O)Nc1nc2ccc(Oc3cccc(NC(=O)Nc4cc(C(F)(F)F)ccc4F)c3)cc2[nH]1", "GI50": "5.28 µM"}
{"compound": "COc1ccc(C2=C(c3ccc(OC)c(OC)c3)C(=O)N3CCCC3C2)cc1 (stereo not drawn)", "GI50": "> 71.1 µM"}
{"compound": "COc1cccc(-c2cc3c4c(nc5ccccc53)C(=O)c3cccnc3-c4n2)c1", "GI50": "1.18 µM"}

Quick batch: GI50 for everything below.
1. Cc1ccc(-c2nc3nc(-c4ccccc4)nc(N4CCNCC4)c3o2)cc1
2. O=S(=O)(c1cccc2c(I)cccc12)N1CCCNCC1
3. COC(=O)c1cc2ccccc2c2c3c(ccc12)OCO3

1: 1.86 µM; 2: 16.7 µM; 3: 49.9 µM

----------
Please respond with reported TGI for every item in the list.
# Tested on: PC-3 prostate
# measurement description: NCI tumour cell line growth inhibition, 48 h

Worked examples follow.
{"molecule": "Cc1cnc2[nH]c(-c3ccc4ccccc4c3)cc(=O)c2c1", "measurement target": "PC-3 prostate", "TGI": "> 100 µM"}
{"molecule": "CN1CCc2[nH]nc(-c3n[nH]c4c3CN(C)CC4)c2C1", "measurement target": "PC-3 prostate", "TGI": "> 100 µM"}
{"molecule": "Cc1cnc(CNC(=O)c2c(=O)c3ccc(N4CCCN(C)CC4)nc3n3c2sc2ccccc23)cn1", "measurement target": "PC-3 prostate", "TGI": "9.7 µM"}

Quick batch: TGI for everything below.
1. CN(Cc1cnc2c(N)nc(N)nc2n1)c1ccc(Cl)cc1
2. O=C(c1ccc(Cl)cc1)N(C(=S)OCCOc1ccccc1)c1ccccc1
3. O=C1CC(=O)NC(=NNS(=O)(=O)c2ccc(Cl)cc2)N1
4. CC[C@@]1(O)C(=O)OCc2c1cc1n(c2=O)Cc2c-1nc1ccccc1c2/C=N/NC(=O)c1ccc(N)cc1
5. COC(=O)C1=C(C)NC(C)=C(C(=O)OCC(C)C)C1c1ccccc1[N+](=O)[O-] (stereo not given)
6. COC(=O)CCC(NC(=O)OC(C)(C)C)C(=O)NC(Cc1ccc(NC(=O)CCCC(C)=O)cc1)C(=O)NC(CCC(=O)OC)C(=O)OC (stereo not given)

["> 100 µM", "56.7 µM", "> 100 µM", "> 100 µM", "16.9 µM", "> 100 µM"]

Provide TGI, tested on PC-3 prostate, for CC(Cl)CC(=O)OCC1CCCN2CCCCC12 (stereo not given) .
> 100 µM

----------
# Tested on: UACC-257 melanoma
# measurement description: NCI tumour cell line growth inhibition, 48 h
Please respond with reported TGI for every item in the list.

Worked examples follow.
{"compound": "ClCCCCCc1c2nc(c(CCCCCCl)c3ccc([nH]3)c(CCCCCCl)c3ccc([nH]3)c(CCCCCCl)c3nc1C=C3)C=C2", "result": "> 100 µM"}
{"compound": "CCn1cnnc1-c1nsc2ccccc12", "result": "> 100 µM"}
{"compound": "COc1cc([N+](=O)[O-])c(OC)cc1-c1nc2sccn2c1/C=N/N=C(N)N", "result": "54.2 µM"}
{"compound": "COC(=O)CCC(NC(=O)OC(C)(C)C)C(=O)NC(Cc1ccc(NC(=O)CCCC(C)=O)cc1)C(=O)NC(CCC(=O)OC)C(=O)OC (stereo not given)", "result": "> 100 µM"}
{"compound": "COC(=O)c1cc2ccccc2c2c3c(ccc12)OCO3", "result": "> 1000 µM"}
{"compound": "O=C(CC(Cl)=C(Cl)Cl)c1ccccc1", "result": "70 µM"}

Quick batch: TGI for everything below.
1. NC(=O)NC12CC3CC(CC(F)(C3)C1)C2
2. Nc1c(C(=O)c2cccc(-c3cccnc3)c2)cnn1-c1ccc(F)cc1F
3. O=C1C(SCCO)=C(SCCO)C(=O)N1c1ccc(-c2ccccc2)cc1
4. Cc1nc2sccn2c1/C=C1/C(=O)Nc2cccc(Cl)c21

> 100 µM
> 25 µM
7.62 µM
> 100 µM
